Target: T1, huNav1.7α + β1-β2-β3 (human Nav1.7α co-expressed with human Navβ1, Navβ2 and Navβ3 on cells) (human)
T1 construct: also called huNav1.7-beta1-beta2-beta3; CHO FlpIn huNav1.7α + β1-β2-β3
Assay: binding FACS, CHO FlpIn cells
// Bmax lookup, one value per entry
Response body: numeric value in %, unit text excluded.

Completed entries (count: 3):
Lab note: measured Bmax of F010302314 (VHH, also called F0103387G04(L11V, A12V, K33R, R39Q, S50Y, S56D, T60A, G73R, W78V, S79Y, T83R, V89L, N93R, N100cI)) VHH: EVQLVESGGGVVQPGGSLRLSCAASGPVFNINRMAWYRQAPGKQRELVAYVTPTGDISYADSVKGRFTISRDRSKRVYLQMNSLRPEDTALYYCRALLQPDSYSITRTYWGQGTLVTVSS was 100

Reported Bmax for F010302327 (VHH, also called F0103387G04(L11V, A12V, K33R, R39Q, S50Y, S56D, T60A, G73A, W78V, S79Y, T83R, V89L, N93R, D99R)) VHH: EVQLVESGGGVVQPGGSLRLSCAASGPVFNINRMAWYRQAPGKQRELVAYVTPTGDISYADSVKGRFTISRDASKRVYLQMNSLRPEDTALYYCRALLQPRSYSNTRTYWGQGTLVTVSS was 87

For F010302329 (VHH, also called F0103387G04(L11V, A12V, K33R, R39Q, S50Y, S56D, T60A, W78V, S79Y, T83R, V89L, N93R, S100R)) VHH: EVQLVESGGGVVQPGGSLRLSCAASGPVFNINRMAWYRQAPGKQRELVAYVTPTGDISYADSVKGRFTISRDGSKRVYLQMNSLRPEDTALYYCRALLQPDRYSNTRTYWGQGTLVTVSS the binder record lists Bmax as 94

Here is the next item to consider.
Entry F010302370 (VHH, also called F0103387G04(L11V, A12V, K33R, R39Q, S50Y, S56D, T60A, G73R, W78V, S79Y, T83R, V89L, N93R, D99S, N100cI)) VHH: EVQLVESGGGVVQPGGSLRLSCAASGPVFNINRMAWYRQAPGKQRELVAYVTPTGDISYADSVKGRFTISRDRSKRVYLQMNSLRPEDTALYYCRALLQPSSYSITRTYWGQGTLVTVSS ; Bmax = 100
